measurementProtocol: folding stability dG unfold (combined trypsin and chymotrypsin); higher = more stable
Use Y when the recorded folding stability dG unfold is no lower than 3 kcal/mol; use N when it is lower.

Asked: Identify whether the reported folding stability dG unfold of the following sequence is 3 kcal/mol or greater: SAGGSAGGSAGGSPLIVEFKGDELRNTIPSGFEVLSEERDPELGYVRAALRALGSGETLSAGGSAGGSAGGS [r4_435_TrMRF]
Given back: N

Asked: Does folding stability dG unfold meet or surpass 3 kcal/mol for SAGGSAGGSAGGVEIVIMFPRGMPPEQFAKMIAKWLRRQGLPPNVKVDIKIIPIDPDDMSAGGSAGGSAGGS [r10_746_TrROS] ?
Given back: Y

Asked: Please check the record SAGGSAGGSAGSMTVLEEEEIELPDDVVLTRLKVPGEELIRIEIPEEGKEEIIPASEWPGSAGGSAGGSAGG [r17_286_JUSTAS] and state if its folding stability dG unfold is at or above 3 kcal/mol.
Given back: N

Asked: Check this sequence for folding stability dG unfold at or above 3 kcal/mol: SAGGKKKVFLLENGELVVFDPETGKLEPVKLPEIPLTVEVEFEEGEGKIRVTVTNPAGLKLEFEFDFSAGGS [r16_453_TrMRF]
Given back: Y

Asked: Is reported folding stability dG unfold greater than or equal to 3 kcal/mol here: SAGGSAGGSAGMLPLEELLKKNPKPIKVLVKVGDTEYLVEVTPGEKKYTIKVKPLKKSKPSAGGSAGGSAGG [r11_549_TrMRF]
Given back: N

Asked: Does the reported folding stability dG unfold for SAGGSAGGSAMSPTEAERARPVPVVKTETTVTLDPSGYRVETVTYDGGVTETVVTPLPPELASAGGSAGGSA [r18_192_JUSTAS] fall at or above the 3 kcal/mol mark?
Given back: N

Asked: Quick check: does SAGGSAGGSYKIDKIEVQPPPGGYYQATIEVEQVDPENGNPQRQEQEIPVPANDPKQIKDFLKSAGGSAGGS [r12_691_TrROS] have folding stability dG unfold greater than or equal to 3 kcal/mol?
Given back: N

Asked: Does folding stability dG unfold meet or surpass 3 kcal/mol for SAGGSAGGMTKTEVTVTVEKVPDGTYVVKTTKTTTTTNPDGTLTSSTTTTTKTVTPEELAAVLASAGGSAGG [r6_974_JUSTAS] ?
Given back: Y

Asked: hey, is folding stability dG unfold for this one >= 3 kcal/mol? SAGGSAGGSAKENEKISIGPEITETGLDILEIKVDTNTKVVTIRFANKIYRIDKNGNISIVSSAGGSAGGSA [r18_445_TrMRF]
Given back: N

Asked: Has SAGGSMKITKIEIEKLPNGEYKITITKDENGNITVTVTNKNGKKKTITLKVKPEDVEEVLKELLKKSAGGSA [r2_298_TrROS_Hall] a recorded folding stability dG unfold greater than or equal to 3 kcal/mol?
Given back: N

Asked: Identify whether the reported folding stability dG unfold of the following sequence is 3 kcal/mol or greater: SAGGSAGGSAGMDIPLTFTAPNADGQPVKVRVEKIIPEKGYLLVRVEYPDDREETFLDPFSAGGSAGGSAGG [r11_742_TrMRF]
Given back: N

Asked: # bool: folding stability dG unfold of SAGGSGLRVGDVVEAEGVVVPDPETRLRRAVFRFPDFVVVEVVEVPEDVAPDEEIPFPVRIDAIVPSAGGSA [r2_113_TrMRF] >= 3 kcal/mol
Given back: N

Asked: Is reported folding stability dG unfold greater than or equal to 3 kcal/mol here: SAGGKYVMFPFDSPEDLKDLLPPGYPVEIHMMPPKGKHRTRTFTPDEIKLELPPGENFYFMIKVKPPDSAGG [r13_461_TrROS]
Given back: N

Asked: Reported folding stability dG unfold reaches at least 3 kcal/mol for SAGGMEVREIDVENEDGHNVKIEIWWMPGEGWIMVKIEGPNPALIDDIQKEIGLPILEVMKDGYLMIKSAGG [r13_937_TrROS] ?
Given back: N

Asked: Has SGLLEKFLKEAEEWIKKLGLKVKPGEKVEIPIPFENNLIAKIEFYPGEKIIKVVLIGENKPVEYKFKIEKSA [r9_426_TrMRF] a recorded folding stability dG unfold greater than or equal to 3 kcal/mol?
Given back: N

Asked: Entry SAGGSAGGSIPEILKKIGISPEVVTEVEVTPVEKLPDSLVVKVTYTYKLPNGTTETKTVTVPIGSAGGSAGG [r6_776_JUSTAS] : is its folding stability dG unfold no less than 3 kcal/mol?
Given back: N

Asked: Tell me whether folding stability dG unfold is at least 3 kcal/mol here: SAGNVIVVVNPETGEVVVVSFDELVRIVAVSSKTLVPEVRDVPRDKVLDFIKEAFPGPVEILEIKPAPVSAG [r5_519_TrMRF]
Given back: N

Asked: Is folding stability dG unfold for SAGGSASSSLEVEVTAESPDPETGELRVTAVITTTYFDPSTGSTSTTTTTLTLTPEELAALVAALSSAGGSA [r2_357_JUSTAS] at or above 3 kcal/mol?
Given back: Y

Asked: Confirm if folding stability dG unfold reported for the sequence SAGGSMKPVKKTIVILKPSSVTEEEVKEEVVEKAKELGLKVKPIRTEVYPLPDYYLVVVEVEIEVPPESAGG [r13_351_TrMRF] is 3 kcal/mol or above.
Given back: N

Asked: Hello, I need to know if KTLVIHAKTPEEILAAIKEAIKEGKTVVIEMSPELIEALKEAGFEIEKIEEVEEIDGKKIYRVVIEVKPKES [r1_173_TrROS_Hall] has measured folding stability dG unfold not below 3 kcal/mol. Thanks!
Given back: N

Asked: Assess whether reported folding stability dG unfold for SAGGDPDGKPKIEIKIKDINVEPDPDNGYYRATIKIRFPNGREINFDIPMPPGQTAEQVKEQAREMIQSAGG [r13_578_TrROS] sits at 3 kcal/mol or higher.
Given back: N

Asked: Does the reported folding stability dG unfold for SAGGSAGGSGKKYMIDSPEAMNDMRDAGIPPKKIEPEPYPIPANDNPGFKDMPWPMTMYRVKVSAGGSAGGS [r12_78_TrROS] fall at or above the 3 kcal/mol mark?
Given back: N

Asked: Could you tell me if the measured folding stability dG unfold of SAGGSAGGSAGGFRIKITEIWPISMEMRKPDPENGKWKEQPMTIMIIRIKIENLPPGAKISAGGSAGGSAGG [r17_530_TrROS] reaches 3 kcal/mol or more?
Given back: Y

Asked: Record SAGSRVLTLVFEIPGRPEVVENLPEDVVLPDGARLYRDGERLLLVVEREVPSLPVLDADGRPVGPELLSAGG [r19_148_TrMRF] ; criterion: folding stability dG unfold no lower than 3 kcal/mol. Met?
Given back: N

Asked: folding stability dG unfold >= 3 kcal/mol for SAKKKVIEVELPPDAKVVTIKLEGKGVEITFVEVDGKLVITVRYKDDPSKTVTIVVKTKEEADALLKALSAG [r14_716_TrROS_Hall] ?
Given back: N

Asked: Item SAGGSAGGSAGSLLTETSESVINDTKITHVLEIDPSSGALRLILETKHPDPGIVTVELLPSAGGSAGGSAGG [r17_242_JUSTAS] with folding stability dG unfold of 3 kcal/mol or above?
Given back: N
